Test system: LXRb:RXRa (NR concentration 270 nM, RXRa partner concentration 90 nM)
assay_explanation: PBM binding z-score (relative to random genomic background probes); higher = stronger binding; sequences stand for … in GC…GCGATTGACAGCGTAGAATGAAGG
Rule: PBM binding z-score of 1 or more gives true; anything lower gives false.

> print(dat)
                              residues                           target.of.assay  class.label
 1  CCAGATAGGTGAGAAGGTAACTCAGCCTCGATTA  LXRb:RXRa (NR concentration 270 nM, RXRa partner concentration 90 nM)        false
 2  CTCGAAAGGTCGGTTGAGGAGAGTATACGGATAA  LXRb:RXRa (NR concentration 270 nM, RXRa partner concentration 90 nM)         true
 3  CGAATTAGGTCAAGGACAGTGAATCTCCGCACGC  LXRb:RXRa (NR concentration 270 nM, RXRa partner concentration 90 nM)         true
 4  GCGACTGGGGCATCAGCAGATTACCATAACTTAA  LXRb:RXRa (NR concentration 270 nM, RXRa partner concentration 90 nM)        false
 5  TCGAGTAGGTTACCAATGGGTCATTCAGCTTTCT  LXRb:RXRa (NR concentration 270 nM, RXRa partner concentration 90 nM)         true
 6  GCATATAGGTAACACAAGGTGAAAGTCCGATTGT  LXRb:RXRa (NR concentration 270 nM, RXRa partner concentration 90 nM)         true
 7  ACAATGAGGTTACCAAAGATCAGGGAAACGCTTG  LXRb:RXRa (NR concentration 270 nM, RXRa partner concentration 90 nM)         true
 8  GCTGCGAGGTCAGGTTGGTCAGCTAACGGGTACG  LXRb:RXRa (NR concentration 270 nM, RXRa partner concentration 90 nM)         true
 9  CCTACTGGGGCATAAGGTTACCATAAGCCAGCCC  LXRb:RXRa (NR concentration 270 nM, RXRa partner concentration 90 nM)        false
10  AGAATGAGGTTAAGATAAGGGAAACAGAATACAT  LXRb:RXRa (NR concentration 270 nM, RXRa partner concentration 90 nM)         true
11  TCTTGTAGATCAATCGAGGTTAAGAAAGTGCGCT  LXRb:RXRa (NR concentration 270 nM, RXRa partner concentration 90 nM)         true
12  CCCAGTAGGTTATGGGGCATTCAGGCAACGGTGA  LXRb:RXRa (NR concentration 270 nM, RXRa partner concentration 90 nM)        false

The measured values listed here are drawn from the supplement of paper PMC6555819.
